Target: RORγ (Homo sapiens (Human))
Sequence (P51449 269-508): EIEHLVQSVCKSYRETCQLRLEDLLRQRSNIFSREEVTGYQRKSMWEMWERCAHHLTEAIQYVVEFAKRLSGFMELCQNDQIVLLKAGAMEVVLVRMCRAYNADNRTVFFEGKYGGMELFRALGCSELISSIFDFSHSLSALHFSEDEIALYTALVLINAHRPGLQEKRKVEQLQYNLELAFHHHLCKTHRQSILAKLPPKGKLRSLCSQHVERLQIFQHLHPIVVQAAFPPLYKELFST
Test: Reporter Gene Assay (RGA): inhibition of RORγ transactivation of a luciferase reporter
Conditions: transiently transfected HEK 293 cells (Gal4DBD hRORC LBD), 20-24 h incubation
pIC50: −log10 of the molar value.
metric-name: pIC50

{"columns": ["smiles-str", "result"],
 "data": [
  ["CNS(=O)(=O)c1ccc(CNc2nc3cnc(-c4c(C)ncnc4C4CC4)nc3n([C@@H](C)C3CC3)c2=O)cc1", 6.40],
  ["CCS(=O)(=O)c1ccc(CNc2nc3cnc(-c4c(C)ncnc4C4CC4)nc3n([C@@H]3C[C@H]4CC[C@@H]3C4)c2=O)nc1", 6.41],
  ["CCS(=O)(=O)c1ccc(CNc2nc3cnc(-c4c(OC)ncnc4C4CC4)nc3n(C(C)C)c2=O)cc1", 6.87]
]}
